System: Pa16c cells
METHOD SUMMARY: Pa16c Cell Proliferation Assay
Format: cell-based
RUN PARAMETERS: Table 2, read-out: Inhibition of cell proliferation in Pa16c (IC50 class)
pIC50: −log10 of the molar value.
Can you tell me pIC50 for the items I'm about to list?

The cases that follow already have their pIC50 on record.
Cc1ccc(NC(=O)c2cc(C(F)(F)F)cnn2)cc1-c1cncc(-c2cc(NC=O)ncn2)c1    6.00 to 6.30
Cc1ccc(NC(=O)c2cc(C(F)(F)F)cnn2)cc1-c1ccnc(-c2ccoc2)c1    6.30 to 7.00
Cc1ccc(NC(=O)c2cc(C3CC3)cnn2)cc1-c1ccnc(-c2ccsc2)c1    6.30 to 7.00

Hi, could you look up pIC50 for each item in my list?
1. Cc1cc(-c2cc(NC(=O)c3cncc(C(C)(F)F)c3)ccc2C)cc(-c2ccnc(NC(=O)C3CC3)c2)n1
2. Cc1ccc(NC(=O)c2cc(C(C)(F)F)cnn2)cc1-c1ccnc(-c2ccnc(NC(=O)C3CC3)c2)c1
3. Cc1ccc(NC(=O)c2cc(C(F)(F)F)cnn2)cc1-c1ccnc(-c2cnsc2)c1

Result block:
["5.00 to 6.00", "6.30 to 7.00", "6.30 to 7.00"]

Lab note: each compound below needs its pIC50 filled in.
1. Cc1ccc(NC(=O)c2cc(C3CC3)cnn2)cc1-c1nc(NCCO)cc(-c2ccnc(NC(=O)C3CC3)c2)n1
2. Cc1ccc(NC(=O)c2ccc(C(F)(F)F)nn2)cc1-c1ccnc(-c2ccnc(NC(=O)C3CC3)c2)c1
3. Cc1ccc(NC(=O)c2cc(C(F)(F)F)cnn2)cc1-c1ccnc(-c2ccsc2)c1
4. Cc1ccc(NC(=O)c2cc(C(C)(C)F)cnn2)cc1-c1cncc(-c2cc(NC(=O)C3CC3)ncn2)c1

Result block:
1. 5.00 to 6.00
2. > 7.00
3. > 7.00
4. 6.00 to 6.30
